From: patent US9434711B2

The following molecules are shown together with reported pIC50 values.
target: canine TRPM8 (Canis lupus familiaris, UniProt Q1A7N1); assay: In Vitro Canine TRPM8 Functional Assay (Ca2+ fluorescence, icilin activation); assay type: cell-based; conditions: HEK293 cells stably expressing canine TRPM8; icilin activation; eight-point dose-response; read-out: IC50
Sequence (Q1A7N1 1-1104): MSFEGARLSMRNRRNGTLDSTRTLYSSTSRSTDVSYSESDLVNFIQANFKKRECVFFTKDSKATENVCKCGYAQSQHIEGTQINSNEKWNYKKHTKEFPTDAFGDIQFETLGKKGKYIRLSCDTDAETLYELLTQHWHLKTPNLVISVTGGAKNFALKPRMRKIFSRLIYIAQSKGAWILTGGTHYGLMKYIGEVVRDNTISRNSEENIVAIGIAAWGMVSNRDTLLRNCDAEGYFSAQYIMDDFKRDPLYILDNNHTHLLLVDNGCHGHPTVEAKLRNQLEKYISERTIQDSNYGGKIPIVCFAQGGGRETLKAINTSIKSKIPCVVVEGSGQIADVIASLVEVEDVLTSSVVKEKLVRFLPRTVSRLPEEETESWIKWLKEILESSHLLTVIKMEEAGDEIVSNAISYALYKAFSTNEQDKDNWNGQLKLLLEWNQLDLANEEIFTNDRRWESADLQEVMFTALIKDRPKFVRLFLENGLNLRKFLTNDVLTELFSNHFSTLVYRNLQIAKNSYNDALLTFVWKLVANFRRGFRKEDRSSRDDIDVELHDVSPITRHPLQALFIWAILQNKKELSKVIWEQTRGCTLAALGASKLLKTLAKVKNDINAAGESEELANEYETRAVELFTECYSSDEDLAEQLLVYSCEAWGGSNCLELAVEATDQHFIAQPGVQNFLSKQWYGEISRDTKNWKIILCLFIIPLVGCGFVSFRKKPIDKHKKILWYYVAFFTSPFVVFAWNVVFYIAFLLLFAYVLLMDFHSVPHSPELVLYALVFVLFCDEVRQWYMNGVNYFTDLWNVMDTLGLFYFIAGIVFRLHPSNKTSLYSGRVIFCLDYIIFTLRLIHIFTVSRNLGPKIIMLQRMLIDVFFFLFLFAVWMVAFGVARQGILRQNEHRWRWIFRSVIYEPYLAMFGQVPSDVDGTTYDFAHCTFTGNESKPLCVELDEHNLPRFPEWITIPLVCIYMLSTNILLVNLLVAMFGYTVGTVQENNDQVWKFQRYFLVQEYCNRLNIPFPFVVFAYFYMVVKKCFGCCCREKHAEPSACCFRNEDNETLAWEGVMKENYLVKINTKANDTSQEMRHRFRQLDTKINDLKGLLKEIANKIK
Would you please state pIC50, meaning minus log10 of the concentration in mol/L, as a bare number?

In the examples that follow, each entry is paired with its recorded pIC50.
COC(=O)c1cccc(CN(c2sc3ccccc3c2Br)S(=O)(=O)c2cccnc2)c1 [Compound 405]
7.44
CCCCN(c1sc2ccccc2c1Br)S(=O)(=O)c1ccc(C(=O)O)cc1 [Compound 272]
8.21

Give the reported value of pIC50 for this record: CS(=O)(=O)Nc1ccc(S(=O)(=O)N(CCC(F)(F)F)c2cc3ccccc3s2)cc1 [Compound 507] 7.47

For Cc1c(N(CCC2CC2)S(=O)(=O)c2cccc(C#N)c2)sc2ccccc12 [Compound 549] , write its pIC50. 7.80

Specify measured pIC50 for O=S(=O)(c1ccsc1)N(Cc1ccc(F)c(C(F)(F)F)c1)c1sc2ccccc2c1Cl [Compound 187] . 8.22

Please report the measured pIC50 for COC(=O)c1ccc(S(=O)(=O)N(Cc2ccc(F)c(C(F)(F)F)c2)c2sc3ccccc3c2C(C)=O)cc1 [Compound 313] 7.68

Read off the recorded pIC50 for Cc1c(N(Cc2cccc3cccnc23)S(=O)(=O)c2ccsc2)sc2ccccc12 [Compound 17] 7.66

Answer with reported pIC50 of Cc1c(N(Cc2ccc(OC(F)(F)F)cc2)S(=O)(=O)c2ccc(N(C)C)nc2)sc2ccccc12 [Compound 789] 7.93

###

system: Male Sprague Dawley rats; test: Chronic Constriction Injury (CCI)-Induced Model of Neuropathic Pain, Acetone-Induced Hypersensitivity; type: in vivo, rat; conditions: Rattus norvegicus, po, 2 h, 30 mg/kg p.o., Water, pretreatment 2 hr, Na salt form; read-out: Percent Inhibition
endpoint: inhibition in vivo at 30 mg/kg

O=C(O)c1ccc(S(=O)(=O)N(Cc2ccc(F)c(C(F)(F)F)c2)c2sc3ccccc3c2Br)cc1 [Compound 292]
60%
CC(C)(O)c1c(N(Cc2ccc(F)c(C(F)(F)F)c2)S(=O)(=O)c2ccc(C(=O)O)cc2)sc2ccccc12 [Compound 361]
91%
O=C(O)c1ccc(S(=O)(=O)N(CCCCC(F)(F)F)c2sc3ccccc3c2Br)cc1 [Compound 395]
23%

Here is the next item to consider.
Please list inhibition in vivo at 30 mg/kg recorded for the compound Cc1c(N(Cc2ccc(OC(F)(F)F)cc2)S(=O)(=O)c2ccc(C(=O)O)cc2)sc2ccccc12 [Compound 496] 74%

###

Recorded inhibition at 0.2 µM by entry
target: canine TRPM8 (Canis lupus familiaris, UniProt Q1A7N1); experiment: In Vitro Canine TRPM8 Functional Assay (Ca2+ fluorescence, icilin activation); format: cell-based; conditions: compound at 0.2 μM; canine TRPM8, icilin activation; read-out: % Inh @ 0.2
Provide only the numeric value, understood in %.

Cc1c(N(Cc2cccc(OC(F)(F)F)c2)S(=O)(=O)CCCn2ccnc2)sc2ccccc12
87
Cc1c(N(CCCCC(F)(F)F)S(=O)(=O)c2ccc(N(C)C)nc2)sc2ccccc12
102
CS(=O)(=O)N(Cc1ccc(F)c(C(F)(F)F)c1)c1sc2ccccc2c1C=O
96

Given the compound CS(=O)(=O)Nc1ccc(S(=O)(=O)N(CCC(F)(F)F)c2sc3ccccc3c2Br)cc1Br , write its reported inhibition at 0.2 µM. 101

Determine its reported inhibition at 0.2 µM: Cc1c(N(Cc2ccc(F)c(C(F)(F)F)c2)S(=O)(=O)c2ccc(C(=O)O)cc2)sc2cc(C(F)(F)F)ccc12 39.5

Indicate the recorded inhibition at 0.2 µM value for this compound: Cc1c(N(Cc2cccc(OC(F)(F)F)c2)S(=O)(=O)CCCO)sc2ccccc12 101

Please look at this compound and report its inhibition at 0.2 µM: Cc1c(N(Cc2ccc(C(F)(F)F)c(F)c2)S(=O)(=O)c2ccc(C(=O)O)cc2)sc2ccccc12 101

Read the entry CC(C)c1c(N(CCC2CC2)S(=O)(=O)c2ccccc2)sc2ccccc12 and write its reported inhibition at 0.2 µM. 102

Dear colleague, please send me the reported inhibition at 0.2 µM for CCS(=O)(=O)N(Cc1ccc(F)c(C(F)(F)F)c1)c1sc2ccccc2c1CNC when you can. 95

Write down inhibition at 0.2 µM measured for item Cc1c(N(Cc2ccc(F)c(C(F)(F)F)c2)S(=O)(=O)c2ccc(C(=O)O)cc2)sc2cc(F)ccc12 95
